pIC50 values for the binders below.
experimental-target: T1, erythropoietin receptor, human recombinant (NSO cells) (human, UniProt P19235 25-250, limits assumed)
T1 construct: also called EPOR; EPO receptor
T1 sequence (looked up): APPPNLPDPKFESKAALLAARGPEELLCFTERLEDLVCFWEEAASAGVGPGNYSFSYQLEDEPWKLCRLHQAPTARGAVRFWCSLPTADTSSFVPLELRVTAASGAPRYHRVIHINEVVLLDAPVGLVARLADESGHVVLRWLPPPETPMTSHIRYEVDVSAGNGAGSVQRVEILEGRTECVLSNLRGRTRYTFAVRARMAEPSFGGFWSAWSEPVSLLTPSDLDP
assay-notes: radioligand binding, displacement of [125I]EPO
pIC50: −log10 of the molar value. Where no end group is shown, it is not given here.

binder	pIC50
NYLCRMGPITWVCKP (not fully specified; cysteine pairing not given here, Structure only as drawing CHEM-US-00005; also called compound 003; Control 2: AC-0005-003) [AC-0005-003]	6.92
GGNYLCRMGPITWVCKPQGG (not fully specified; cysteine pairing not given here, Structure only as drawing CHEM-US-00003; also called compound 001) [AC-0005-001]	5.89
LYACHMGPITAVCQP (not fully specified; cysteine pairing not given here, Structure only as drawing CHEM-US-00006; also called compound 004) [AC-0005-004]	6.58
GGLYACHMGPITAVCQPQGG (not fully specified; cysteine pairing not given here, Structure only as drawing CHEM-US-00004; also called compound 002) [AC-0005-002]	5.09
